- Tested on: SNB-19 CNS
- ASSAY_REMARKS: NCI-60 one-dose screen, 48 h (100 = growth as untreated, 0 = no growth, -100 = all killed)
- EXPERIMENTAL_CONDITIONS: 10 µM unless noted
Compounds without any hit were thinned out: in the full panel of roughly 83,000, 20% have a hit.
MEASURED_QUANTITY: growth (%)
Entry rule: numbers only, all in %.

compound=CC(=O)Nc1ccc(C(=O)COc2ccc(/C=C3\CCc4ccccc4C3=O)cc2)cc1 experimental_result=106
compound=O=C(Nc1nc2c(C(F)(F)F)cccc2s1)c1cc(Cl)ccc1O experimental_result=10.2
compound=CCOC(=O)OCC(=O)[C@@]1(O)CC[C@H]2[C@@H]3CCC4=CC(=O)CC[C@]4(C)[C@H]3[C@@H](O)C[C@@]21C experimental_result=96.4
compound="COc1ccc(C2=NN(C(C)=O)C(c3c(C)nn(-c4ccccc4)c3N3CCOCC3)C2)cc1 (stereo not given)" experimental_result=85.8
compound="CN[C@@H]1C(OC2[C@H](O[C@H]3[C@H](O)[C@@H](O)[C@H](N=C(N)N)[C@@H](O)[C@@H]3N=C(N)N)OC(C)[C@]2(O)CO)OC(CO)C(O)C1O (stereo not given in full)" experimental_result=113

Query: Supply recorded growth for `Cn1cc(NC(=O)Nc2cc(C(=O)O)n(C)c2)cc1C(=O)O` here.
Reply: 118

Query: Supply recorded growth for `O=Nc1c2cccnc2n2nnc3ccc(Cl)cc3c12` here.
Reply: 89.8

* * *

- Test system: MALME-3M melanoma
- ASSAY_REMARKS: NCI-60 one-dose screen, 48 h
- EXPERIMENTAL_CONDITIONS: 10 µM unless noted
Compounds without any hit were thinned out: in the full panel of roughly 83,000, 20% have a hit. Calls of active or inactive are those of the source. The calls were made as follows: active = growth percent below 10; inactive = the rest.
Allowed answers: 1.0 for active, 0.0 for inactive

Answered examples (10):
compound=CCOc1cc(/C=C/C(=O)CC(=O)/C=C/c2ccc(OC(=O)CNCCN(CC)CC)c(OCC)c2)ccc1OC(=O)CNCCN(CC)CC label_value=1.0
compound=Cc1nn(-c2ccccc2)c2nc(N)c(C3=NCCO3)nc12 label_value=0.0
compound=COc1ccc(NC(=O)[C@@H]2C[C@H]2c2ccccc2)c(C(N)=O)c1 label_value=0.0
compound=CCCn1c(N)c(C(=O)CNc2ccc(I)cc2)c(=O)[nH]c1=O label_value=0.0
compound=Cc1ccc(N/N=C(/C(=O)c2ccc(Cl)cc2)c2nc(C)cc(=O)[nH]2)cc1 label_value=0.0
compound=Fc1ccc(-c2nn3c(-c4cc(C(F)(F)F)cc(C(F)(F)F)c4)nnc3s2)cc1 label_value=0.0
compound=COP(=O)(OC)C(c1ccc(O)cc1)(c1ccc(O)cc1)c1ccc(O)cc1 label_value=0.0
compound="CC1CN(/N=C/c2ccc([N+](=O)[O-])o2)C(=N)O1 (stereo unspecified)" label_value=0.0
compound=N#Cc1c(NC(=O)c2ccco2)[n+]([O-])c2ccccc2[n+]1[O-] label_value=0.0
compound=CC(C)N(Cc1ccccc1)c1c(S)ssc1=S label_value=1.0

Query: Entry `COc1ccc(NC(=O)c2ccccc2-c2ccccc2)c(C(N)=O)c1` : call = ?
Reply: 0.0

* * *

As shown below, each of these compounds has a reported growth value.
- System: M14 melanoma
- ASSAY_REMARKS: NCI-60 one-dose screen, 48 h (100 = growth as untreated, 0 = no growth, -100 = all killed)
- EXPERIMENTAL_CONDITIONS: 10 µM unless noted
About 83,000 compounds went through this panel and 20% of them were active in at least one assay; those are over-represented in the sample as a whole.
Entry rule: numbers only, all in %.

compound=COc1ccc(C(=O)COc2cccc(/C=C3\CSc4ccc(Cl)cc4C3=O)c2)cc1 measured_quantity=growth experimental_result=102

Query: Supply recorded growth for COC(=O)C1=CCC(n2cnc3c(N)ncnc32)O1 (centres undefined) here.
Reply: 105

Query: Supply recorded growth for C#C[C@]1(O)CCC2C3CCc4cc(O)ccc4C3CC[C@@]21C (some centres undefined) here.
Reply: 20.4

Query: Supply recorded growth for `COc1ccc2c(c1)c(CC(=O)[Se]C)c(C)n2C(=O)c1ccc(Cl)cc1` here.
Reply: -13.9

Query: Supply recorded growth for CC(=O)N1N=C(c2ccc(Cl)cc2)CC1c1c(C)nn(-c2ccccc2)c1N(C)Cc1ccccc1 (centres undefined) here.
Reply: 79.9

Query: Supply recorded growth for N#CC1c2ccccc2C=CN1C(=O)N(c1ccccc1)c1ccccc1 (centres undefined) here.
Reply: 42.5

Query: Supply recorded growth for `O=C(O)CCC(=O)OC[C@@H](NC(=O)C(Cl)Cl)[C@H](O)c1ccc([N+](=O)[O-])cc1` here.
Reply: 98

Query: Supply recorded growth for `O=C(CN1CCN(c2ccc(Cl)cc2)CC1)N1CCN(c2nnc(-c3ccccc3)c(-c3ccccc3)n2)CC1` here.
Reply: 60.1

Query: Supply recorded growth for `C[C@H]1C(=O)N2c3ccccc3[C@@]3(O)C[C@@H](n4cnc5ccccc5c4=O)C(=O)N1[C@@H]23` here.
Reply: 108

* * *

- Test system: HT29 colon
- ASSAY_REMARKS: NCI-60 one-dose screen, 48 h
- EXPERIMENTAL_CONDITIONS: 10 µM unless noted
- Protocol: Growth inhibition of the HT29 human tumor cell line is measured as a screen for anti-cancer activity. Cells are grown in 96 well plates and exposed to the test compound for 48 hours. Compounds are tested at a single concentration, which is 10^-5 M for most compounds. The reported endpoint is percent growth (GI% or GIPRCNT), where numbers from 0 - 100% represent growth inhibition, and numbers from -100% - 0 represent cell death. For example, a value of 40 represents 60% growth inhibition. […]
Compounds without any hit were thinned out: in the full panel of roughly 83,000, 20% have a hit. The source made the active and inactive calls. How the source made its calls: active means growth percent below 10; inactive means the rest.
Allowed answers: 1 = active, 0 = inactive

Answered examples (3):
molecule=Cc1cc(Br)c(C)cc1Br label_value=0
molecule=O=C(c1ccc(Cl)cc1)c1ccc(Cl)cc1 label_value=0
molecule=CC[N+](CCCCCCCCCC[N+](CC)(c1ccccn1)c1ccccn1)(c1ccccn1)c1ccccn1 label_value=1

Query: Entry `CN1CCC[C@@H]1CCO[C@](C)(c1ccccc1)c1ccc(Cl)cc1` : call = ?
Reply: 0

Query: Entry CC1C(=O)NC2=Nc3ccccc3C(=O)NN21 (stereo unspecified) : call = ?
Reply: 0

Query: Entry `O=C(Oc1cccc2ccccc12)c1ccccc1C(=O)c1ccccc1` : call = ?
Reply: 0

* * *

- System: LOX IMVI melanoma
- ASSAY_REMARKS: NCI-60 one-dose screen, 48 h
- EXPERIMENTAL_CONDITIONS: 10 µM unless noted
About 83,000 compounds went through this panel and 20% of them were active in at least one assay; those are over-represented in the sample as a whole. Calls of active or inactive are those of the source. How the source made its calls: active means growth percent below 10; inactive means the rest.
Allowed answers: Y = active, N = inactive

Answered examples (4):
compound=Cc1cc(C)c2c(N)c3cccc(C)c3nc2n1 label_value=Y
compound="O=CN1N=C(c2ccc(Nc3ccnc4cc(Cl)ccc34)cc2)CC1c1ccc(Cl)cc1 (configuration not stated)" label_value=N
compound=Cc1ccc2nc(-c3ccc(N(C)C)c(Br)c3)cn2c1 label_value=N
compound=N#Cc1c(-c2ccc(F)cc2)n2c(nc1=O)SC(=O)C2=O label_value=N

Query: Entry `Cc1ccc(-c2c3c(N)nc(-c4ccncc4)nc3nc3c2c(C)nn3-c2ccccc2)cc1` : call = ?
Reply: Y

* * *

- Test system: KM12 colon
- ASSAY_REMARKS: NCI-60 one-dose screen, 48 h
- EXPERIMENTAL_CONDITIONS: 10 µM unless noted
The panel holds about 83,000 compounds, 20% with a hit somewhere; the sample as a whole holds those more often. Activity calls are given as the source filed them. Rule for the calls: active = growth percent below 10; inactive = the rest.
Allowed answers: Yes for active, No for inactive

Query: Entry C=C1CCC2C(C)(COC(=O)CC)C(OC(=O)CC)CCC2(C)C1C/C=C1/C(=O)OCC1OC(=O)CC (centres undefined) : call = ?
Reply: Yes

Query: Entry CC(=O)N1N=C(c2ccc(C(F)(F)F)cc2)CC1c1ccc2c(c1)OCO2 (centres undefined) : call = ?
Reply: No

Query: Entry `Cc1cc(C)c(C(=O)c2cccs2)c(C)c1` : call = ?
Reply: No

Query: Entry `Cc1ccc(S(=O)(=O)NCCN2c3nc4ccccc4cc3Sc3cc4ccccc4nc32)cc1` : call = ?
Reply: No

Query: Entry `CC(=O)Nc1cc2c3c(cccc3c1)-c1ccccc1-2` : call = ?
Reply: No

Query: Entry Cc1ccccc1NC(=O)NC(CC(N)=O)c1ccc2c(c1)nc(-c1cccc(Oc3ccc(C(C)(C)C)cc3)c1)n2CCCN1CCCCC1C (centres undefined) : call = ?
Reply: Yes

Query: Entry `C(=C1c2ccccc2-c2ccccc21)c1ccccn1` : call = ?
Reply: No

Query: Entry `COc1ccc2[nH]c(=O)c(CNc3ccc(Nc4nccc(-c5ccc(Cl)cc5)n4)cc3)cc2c1` : call = ?
Reply: No

Query: Entry `O=C(CN1CCN(c2ccc(Cl)cc2)CC1)N1CCN(c2nnc(-c3ccc(Cl)cc3)c(-c3ccc(Cl)cc3)n2)CC1` : call = ?
Reply: No

Values were extracted from PubChem BioAssay (NCI).
